Values compiled from ChEMBL document CHEMBL3992532.

Biological target: Coagulation factor X (Homo sapiens, UniProt P00742)
Sequence (P00742 41-179 limits assumed): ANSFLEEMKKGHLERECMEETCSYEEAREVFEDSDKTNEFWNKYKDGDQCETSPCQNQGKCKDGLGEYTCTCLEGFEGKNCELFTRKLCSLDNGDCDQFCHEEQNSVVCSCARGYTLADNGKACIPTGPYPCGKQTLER
Sequence (P00742 235-488 limits assumed): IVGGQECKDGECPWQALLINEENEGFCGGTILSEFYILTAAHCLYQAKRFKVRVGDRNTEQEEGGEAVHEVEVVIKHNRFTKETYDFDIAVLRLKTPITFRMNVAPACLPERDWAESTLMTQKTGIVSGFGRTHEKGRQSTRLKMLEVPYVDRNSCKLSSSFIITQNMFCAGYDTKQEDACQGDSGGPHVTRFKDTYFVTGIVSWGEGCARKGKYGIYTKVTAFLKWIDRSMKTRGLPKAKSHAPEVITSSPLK
pKi: −log10 of the molar value.
recorded_endpoint: pKi

Value lookup for pKi; key = COC(=O)Nc1ccc(-c2nc([C@H](Cc3ccccc3)NC(=O)/C=C/c3cc(Cl)ccc3-n3cnnn3)[nH]c2Cl)cc1
< 4.88

* * *

Assay: Inhibition of human trypsin using N-benzoyl-Ile-Glu-(OH,OMe)-Gly-Arg-pNA as substrate after 10 to 120 mins at 37 degC by spectrophotometric method
recorded_endpoint: pKi
Schema: pKi number; meaning minus log10 of the concentration expressed in molar units.

Value lookup for pKi; key = COC(=O)Nc1ccc2c(c1)NC(=O)CC/C=C/C[C@H](NC(=O)/C=C/c1cc(Cl)ccc1-n1cnnn1)c1nc-2c[nH]1
5.82

Value lookup for pKi; key = COC(=O)Nc1ccc2c(c1)NC(=O)CCCC[C@H](NC(=O)/C=C/c1cc(Cl)ccc1-n1cnnn1)c1nc-2c[nH]1
5.08

* * *

Assay: Volume of distribution at steady state in Beagle dog at 0.19 mg/kg, iv administered as 10 mins infusion or 0.32 mg/kg, po via gavage administered as cassette dose by LC-MS/MS method
Type: ADME, organism-based, Canis lupus familiaris
Settings: in vivo, read-out: Vdss
recorded_endpoint: Vd (L/kg)
Quick note: give the figure in L/kg, leave out the unit.

Value lookup for Vd; key = COC(=O)Nc1ccc2c(c1)NC(=O)CC/C=C/C[C@H](NC(=O)/C=C/c1cc(Cl)ccc1-n1cnnn1)c1nc-2c[nH]1
1.8

* * *

Experiment: Volume of distribution at steady state in Beagle dog at 0.21 mg/kg, iv administered as 10 mins infusion or 0.42 mg/kg, po via gavage administered as cassette dose by LC-MS/MS method
Assay type: ADME, organism-based, Canis lupus familiaris
Settings: in vivo, read-out: Vdss
recorded_endpoint: Vd (L/kg)
Quick note: give the figure in L/kg, leave out the unit.

Value lookup for Vd; key = COC(=O)Nc1ccc2c(c1)CCCCCC[C@H](NC(=O)/C=C/c1cc(Cl)ccc1-n1cnnn1)c1nc-2c[nH]1
0.7

* * *

Molecular target: Plasminogen (Homo sapiens, UniProt P00747)
Sequence (P00747 97-580 limits assumed): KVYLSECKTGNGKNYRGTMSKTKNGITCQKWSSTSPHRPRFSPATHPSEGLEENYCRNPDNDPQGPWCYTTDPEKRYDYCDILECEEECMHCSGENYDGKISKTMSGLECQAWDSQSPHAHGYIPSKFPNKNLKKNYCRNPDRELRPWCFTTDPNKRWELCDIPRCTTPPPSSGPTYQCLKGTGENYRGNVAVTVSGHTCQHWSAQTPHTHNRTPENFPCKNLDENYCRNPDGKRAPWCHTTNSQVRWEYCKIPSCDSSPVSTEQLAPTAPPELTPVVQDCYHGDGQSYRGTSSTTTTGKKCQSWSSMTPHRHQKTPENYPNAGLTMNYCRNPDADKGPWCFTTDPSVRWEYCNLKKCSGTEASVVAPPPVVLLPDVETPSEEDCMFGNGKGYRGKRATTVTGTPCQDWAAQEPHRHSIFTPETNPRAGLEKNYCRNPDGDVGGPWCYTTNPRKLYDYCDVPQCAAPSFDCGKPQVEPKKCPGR
Sequence (P00747 581-810 limits assumed): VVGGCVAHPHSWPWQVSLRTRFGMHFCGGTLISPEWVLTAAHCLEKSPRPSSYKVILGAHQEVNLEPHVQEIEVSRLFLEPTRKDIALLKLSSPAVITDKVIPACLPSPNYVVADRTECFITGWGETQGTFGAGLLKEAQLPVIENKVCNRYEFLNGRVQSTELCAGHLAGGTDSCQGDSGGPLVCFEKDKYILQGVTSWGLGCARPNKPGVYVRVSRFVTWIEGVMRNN
recorded_endpoint: Ki

Value lookup for Ki; key = COC(=O)Nc1ccc2c(c1)NC(=O)CCCC[C@H](NC(=O)/C=C/c1cc(Cl)ccc1-n1cnnn1)c1nc-2c[nH]1
> 15.2 µM

Value lookup for Ki; key = COC(=O)Nc1ccc2c(c1)NC(=O)CC/C=C/C[C@H](NC(=O)/C=C/c1cc(Cl)ccc1-n1cnnn1)c1nc-2c[nH]1
> 14.2 µM

Value lookup for Ki; key = COC(=O)Nc1ccc(-c2nc([C@H](Cc3ccccc3)NC(=O)/C=C/c3cc(Cl)ccc3-n3cnnn3)[nH]c2Cl)cc1
> 15.2 µM

* * *

Experiment: Oral bioavailability in Beagle dog at 0.35 mg/kg administered via gavage as cassette dose by LC-MS/MS method
Format: ADME, organism-based, Canis lupus familiaris
Settings: in vivo
recorded_endpoint: bioavailability (%)
Quick note: give the figure in %, leave out the unit.

Value lookup for bioavailability; key = COC(=O)Nc1ccc2c(c1)NC(=O)CCCCC[C@H](NC(=O)/C=C/c1cc(Cl)ccc1-n1cnnn1)c1nc-2c[nH]1
0

* * *

Assay: Half life in Beagle dog at 0.21 mg/kg, iv administered as 10 mins infusion or 0.42 mg/kg, po via gavage administered as cassette dose by LC-MS/MS method
Assay type: ADME, organism-based, Canis lupus familiaris
Conditions: in vivo
recorded_endpoint: half-life

Value lookup for half-life; key = COC(=O)Nc1ccc2c(c1)CCCCCC[C@H](NC(=O)/C=C/c1cc(Cl)ccc1-n1cnnn1)c1nc-2c[nH]1
3.2 h

* * *

Test: Volume of distribution at steady state in Beagle dog at 0.2 mg/kg, iv administered as 10 mins infusion or 0.23 mg/kg, po via gavage administered as cassette dose by LC-MS/MS method
Assay type: ADME, organism-based, Canis lupus familiaris
Details: in vivo, read-out: Vdss
recorded_endpoint: Vd (L/kg)
Quick note: give the figure in L/kg, leave out the unit.

Value lookup for Vd; key = COC(=O)Nc1ccc2c(c1)NC(=O)CCCC[C@H](NC(=O)/C=C/c1cc(Cl)ccc1-n1cnnn1)c1nc-2c[nH]1
0.8

* * *

Would you mind telling me the reported fraction unbound of each entry?
Assay: Protein binding in dog plasma
Assay type: ADME, cell-free, Canis lupus familiaris
Details: read-out: PPB (converted)

Value lookup for fraction unbound; key = COC(=O)Nc1ccc2c(c1)NC(=O)CCCCC[C@H](NC(=O)/C=C/c1cc(Cl)ccc1-n1cnnn1)c1nc-2c[nH]1
0.066

Value lookup for fraction unbound; key = COC(=O)Nc1ccc2c(c1)NC(=O)CC/C=C/C[C@H](NC(=O)/C=C/c1cc(Cl)ccc1-n1cnnn1)c1nc-2c[nH]1
0.085

Value lookup for fraction unbound; key = COC(=O)Nc1ccc2c(c1)NC(=O)CCCC[C@H](NC(=O)/C=C/c1cc(Cl)ccc1-n1cnnn1)c1nc-2c[nH]1
0.098

* * *

Assay: Half life in Beagle dog at 0.2 mg/kg, iv administered as 10 mins infusion or 0.23 mg/kg, po via gavage administered as cassette dose by LC-MS/MS method
Assay type: ADME, organism-based, Canis lupus familiaris
Conditions: in vivo
recorded_endpoint: half-life (h)
Quick note: give the figure in h, leave out the unit.

Value lookup for half-life; key = COC(=O)Nc1ccc2c(c1)NC(=O)CCCC[C@H](NC(=O)/C=C/c1cc(Cl)ccc1-n1cnnn1)c1nc-2c[nH]1
1

* * *

Biological target: Coagulation factor XI (Homo sapiens, UniProt P03951)
Sequence (P03951 19-387 limits assumed): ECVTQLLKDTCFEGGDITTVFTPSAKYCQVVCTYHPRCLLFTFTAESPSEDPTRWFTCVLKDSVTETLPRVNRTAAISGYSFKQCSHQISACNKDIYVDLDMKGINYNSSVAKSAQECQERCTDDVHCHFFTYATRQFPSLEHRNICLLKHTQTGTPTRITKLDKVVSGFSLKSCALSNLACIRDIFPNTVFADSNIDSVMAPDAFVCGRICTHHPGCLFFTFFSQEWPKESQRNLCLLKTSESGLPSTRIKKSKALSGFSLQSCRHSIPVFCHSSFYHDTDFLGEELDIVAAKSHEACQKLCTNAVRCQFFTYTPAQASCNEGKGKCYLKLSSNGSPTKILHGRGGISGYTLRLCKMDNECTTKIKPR
Sequence (P03951 388-625 limits assumed): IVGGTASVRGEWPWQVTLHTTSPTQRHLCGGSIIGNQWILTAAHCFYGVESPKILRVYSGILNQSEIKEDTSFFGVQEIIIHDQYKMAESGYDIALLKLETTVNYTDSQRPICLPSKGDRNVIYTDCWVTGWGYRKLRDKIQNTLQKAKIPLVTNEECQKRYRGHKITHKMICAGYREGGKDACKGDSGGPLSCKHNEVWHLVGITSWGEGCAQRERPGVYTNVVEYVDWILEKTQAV
Experiment: Inhibition of human coagulation factor 11a using pyroGlu-Pro-Arg-pNA as substrate after 10 to 120 mins at 37 degC by spectrophotometric method
recorded_endpoint: Ki (nM)
Quick note: give the figure in nM, leave out the unit.

Value lookup for Ki; key = COC(=O)Nc1ccc2c(c1)OCCCCCC[C@H](NC(=O)/C=C/c1cc(Cl)ccc1-n1cnnn1)c1nc-2c(Cl)[nH]1
76

Value lookup for Ki; key = COC(=O)Nc1ccc2c(c1)NC(=O)CC/C=C/C[C@H](NC(=O)/C=C/c1cc(Cl)ccc1-n1cnnn1)c1nc-2c(Cl)[nH]1
0.03

Value lookup for Ki; key = COC(=O)Nc1ccc2c(c1)CCCCCC[C@H](NC(=O)/C=C/c1cc(Cl)ccc1-n1cnnn1)c1nc-2c[nH]1
87

Value lookup for Ki; key = COC(=O)Nc1ccc(-c2nc([C@H](Cc3ccccc3)NC(=O)/C=C/c3cc(Cl)ccc3-n3cnnn3)[nH]c2Cl)cc1
5.8

Value lookup for Ki; key = COC(=O)Nc1ccc2c(c1)NC(=O)C/C=C/C[C@H](NC(=O)/C=C/c1cc(Cl)ccc1-n1cnnn1)c1nc-2c[nH]1
264

Value lookup for Ki; key = COC(=O)Nc1ccc2c(c1)OCCC/C=C/C[C@H](NC(=O)/C=C/c1cc(Cl)ccc1-n1cnnn1)c1nc-2c[nH]1
3920

Value lookup for Ki; key = C=CC[C@H](NC(=O)/C=C/c1cc(Cl)ccc1-n1cnnn1)c1nc(-c2ccc(NC(=O)OC)cc2NC(=O)CC)c[nH]1
27

* * *

Test: Half life in human liver microsomes
Format: ADME, microsome
recorded_endpoint: half-life

Value lookup for half-life; key = COC(=O)Nc1ccc2c(c1)NC(=O)CCCCC[C@H](NC(=O)/C=C/c1cc(Cl)ccc1-n1cnnn1)c1nc-2c(Cl)[nH]1
86 min

Value lookup for half-life; key = COC(=O)Nc1ccc2c(c1)NC(=O)OC/C=C/C[C@H](NC(=O)/C=C/c1cc(Cl)ccc1-n1cnnn1)c1nc-2c[nH]1
69 min

Value lookup for half-life; key = C=CC[C@H](NC(=O)/C=C/c1cc(Cl)ccc1-n1cnnn1)c1nc(-c2ccc(NC(=O)OC)cc2NC(=O)CC)c[nH]1
12 min

Value lookup for half-life; key = COC(=O)Nc1ccc2c(c1)NC(=O)CC/C=C/C[C@H](NC(=O)/C=C/c1cc(Cl)ccc1-n1cnnn1)c1nc-2c(Cl)[nH]1
58 min

Value lookup for half-life; key = COC(=O)Nc1ccc2c(c1)NC(=O)OCCCC[C@H](NC(=O)/C=C/c1cc(Cl)ccc1-n1cnnn1)c1nc-2c[nH]1
62 min

Value lookup for half-life; key = COC(=O)Nc1ccc2c(c1)NCCC/C=C/C[C@H](NC(=O)/C=C/c1cc(Cl)ccc1-n1cnnn1)c1nc-2c[nH]1
17 min

Value lookup for half-life; key = COC(=O)Nc1ccc2c(c1)NC(=O)CCCC[C@H](NC(=O)/C=C/c1cc(Cl)ccc1-n1cnnn1)c1nc-2c[nH]1
90 min

Value lookup for half-life; key = COC(=O)Nc1ccc2c(c1)NC(=O)CC/C=C/C[C@H](NC(=O)/C=C/c1cc(Cl)ccc1-n1cnnn1)c1nc-2c[nH]1
41 min

Value lookup for half-life; key = COC(=O)Nc1ccc2c(c1)NC(=O)CCCCC[C@H](NC(=O)/C=C/c1cc(Cl)ccc1-n1cnnn1)c1nc-2c[nH]1
34 min

* * *

Biological target: Urokinase-type plasminogen activator (Homo sapiens, UniProt P00749)
recorded_endpoint: Ki

Value lookup for Ki; key = COC(=O)Nc1ccc2c(c1)NC(=O)CCCC[C@H](NC(=O)/C=C/c1cc(Cl)ccc1-n1cnnn1)c1nc-2c[nH]1
> 15.1 µM

Value lookup for Ki; key = COC(=O)Nc1ccc(-c2nc([C@H](Cc3ccccc3)NC(=O)/C=C/c3cc(Cl)ccc3-n3cnnn3)[nH]c2Cl)cc1
> 15.1 µM

Value lookup for Ki; key = COC(=O)Nc1ccc2c(c1)NC(=O)CC/C=C/C[C@H](NC(=O)/C=C/c1cc(Cl)ccc1-n1cnnn1)c1nc-2c[nH]1
5.05 µM
